The origin of these recorded values is the SangsterLogP compilation.

The following compounds are shown together with reported logP values.
measureName: logP

INSERT INTO assay_data (compound, measurename, experimentalvalue) VALUES
  ('CC(C)OC(=O)c1cc(OC(=O)N2CCCC2)c(Cl)cc1Cl', 'logP', 4.67),
  ('O=C(Oc1ccc(Cl)cc1)N1CCCC1', 'logP', 3.38),
  ('O=C(Oc1ccccc1Cl)N1CCCC1', 'logP', 3.13),
  ('C#CCOc1cc(OC(=O)N2CCCC2)c(Cl)cc1Cl', 'logP', 3.82),
  ('CC(C)OC(=O)c1cc(OC(=O)N2CCCC2)c(F)cc1Cl', 'logP', 4.2),
  ('C#CCOc1cc(OC(=O)N(CC)CC)c(Cl)cc1Cl', 'logP', 3.95),
  ('O=[N+]([O-])c1ccc(Oc2ccc(C(F)(F)F)cc2Cl)cc1', 'logP', 4.54),
  ('COC(=O)c1cc(S(=O)c2ccc(C(F)(F)F)cc2Cl)ccc1[N+](=O)[O-] (stereo not drawn)', 'logP', 3.65),
  ('COC(=O)c1cc(Oc2ccc(C(F)(F)F)cc2Cl)ccc1Cl', 'logP', 5.04),
  ('C#CCOc1cc(OC(=O)N2CCC(F)(F)C2)c(Cl)cc1Cl', 'logP', 3.42),
  ('Nc1c([N+](=O)[O-])ccc(Oc2ccccc2)c1Cl', 'logP', 4.04),
  ('COC(=O)c1cc(Oc2ccc(C(F)(F)F)cc2Cl)ccc1[N+](=O)[O-]', 'logP', 4.26),
  ('O=C(Oc1ccc(Cl)cc1Cl)N1CCCC1', 'logP', 3.94),
  ('CCOC(=O)C(C)OC(=O)c1cc(Oc2ccc(C(F)(F)F)cc2Cl)ccc1[N+](=O)[O-] (stereo not drawn)', 'logP', 4.81),
  ('O=[N+]([O-])c1ccc(Oc2ccc(C(F)(F)F)cc2Cl)cc1Oc1ccoc1', 'logP', 4.33),
  ('Cc1cccc(Oc2ccc([N+](=O)[O-])cc2)c1', 'logP', 4.4),
  ('COC(=O)c1cc(S(=O)(=O)c2ccc(C(F)(F)F)cc2Cl)ccc1[N+](=O)[O-]', 'logP', 3.57),
  ('COC(=O)CC(C)(N=O)c1cc(Oc2ccc(C(F)(F)F)cc2Cl)ccc1[N+](=O)[O-] (stereo not drawn)', 'logP', 4.54),
  ('COC(=O)c1cc(OC(=O)N2CCCC2)c(Cl)cc1Cl', 'logP', 3.95),
  ('C#CCOc1cc(OC(=O)N2CCCCC2)c(Cl)cc1Cl', 'logP', 4.25),
  ('COC(=O)c1cc(Oc2cc(C(F)(F)F)ccc2Cl)ccc1[N+](=O)[O-]', 'logP', 4.21),
  ('O=C(Oc1cc(O)c(Cl)cc1Cl)N1CCCC1', 'logP', 2.98),
  ('O=C(O)COC(=O)c1cc(Oc2ccc(C(F)(F)F)cc2Cl)ccc1[N+](=O)[O-]', 'logP', 4.27),
  ('O=C(Oc1ccccc1)N1CCCC1', 'logP', 2.73),
  ('O=[N+]([O-])c1ccc(Oc2ccc(Cl)cc2Cl)cc1', 'logP', 4.64),
  ('C#CCOC1=Nc2ccc(OC(=O)N3CCCC3)cc2OC1', 'logP', 2.93),
  ('C=COC(=O)[C@@H](C)Oc1cc(Oc2ccc(C(F)(F)F)cc2Cl)ccc1[N+](=O)[O-]', 'logP', 4.54),
  ('C#CCOc1cc(OC(=O)N2CCC(F)(F)CC2)c(Cl)cc1Cl', 'logP', 3.57);
